- System: SZ95 human sebocyte cells
- assay procedure: Inhibition of de novo lipogenesis (14C-acetate incorporation) in cultured human sebocytes
- Assay type: cell-based
- condition summary: Homo sapiens, SZ95 sebocytes, 14C-acetate incorporation into lipids relative to vehicle; read-out: C9302E Sebocyte IC50
pIC50: −log10 of the molar value.
property: pIC50

A. COc1nccc2ccc(C(=O)N3CCC4(CC3)Cc3cn(C(C)(C)C)nc3C(=O)N4)cc12
B. CC(C)(C)n1cc2c(n1)C(=O)CC1(CCN(C(=O)c3ccc4[nH]ncc4c3)CC1)O2
C. CC(C)(O)[C@@H](NC(=O)[C@H]1CC[C@H](NS(=O)(=O)c2ccc(C(F)(F)F)cc2)CC1)c1ccccc1
Query :: Please list these molecules in decreasing order of pIC50. Your reply should list the labels following the order given in the request.
Result :: A, B, C
(A: 7.03, B: 6.26, C: 5.56)

---

- tgt: CYP2C9 (Homo sapiens, UniProt P11712)
- Sequence (P11712 whole entry): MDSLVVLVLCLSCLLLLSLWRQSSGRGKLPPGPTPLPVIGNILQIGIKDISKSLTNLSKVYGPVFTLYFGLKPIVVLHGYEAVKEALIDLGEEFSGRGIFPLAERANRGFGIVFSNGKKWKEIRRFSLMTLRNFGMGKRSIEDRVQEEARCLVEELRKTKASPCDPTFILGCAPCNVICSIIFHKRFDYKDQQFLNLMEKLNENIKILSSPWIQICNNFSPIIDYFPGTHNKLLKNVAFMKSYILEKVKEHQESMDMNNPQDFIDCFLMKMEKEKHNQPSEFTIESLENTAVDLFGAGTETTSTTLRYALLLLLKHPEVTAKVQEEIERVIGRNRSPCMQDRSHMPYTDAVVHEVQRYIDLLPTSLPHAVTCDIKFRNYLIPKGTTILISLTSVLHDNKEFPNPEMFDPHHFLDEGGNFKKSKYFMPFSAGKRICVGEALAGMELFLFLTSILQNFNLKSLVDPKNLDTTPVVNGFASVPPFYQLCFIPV
pIC50: −log10 of the molar value.
property: pIC50

Item: "Cc1nc2ccc(C(=O)N3CCC4(CC3)CC(=O)c3c(cnn3C(C)C)C4)cc2[nH]1" | System: CYP2C9 (Homo sapiens, UniProt P11712) | pIC50: < 4.52

---

- tgt: CYP3A (Homo sapiens, UniProt P08684)
- Sequence (P08684 2-503): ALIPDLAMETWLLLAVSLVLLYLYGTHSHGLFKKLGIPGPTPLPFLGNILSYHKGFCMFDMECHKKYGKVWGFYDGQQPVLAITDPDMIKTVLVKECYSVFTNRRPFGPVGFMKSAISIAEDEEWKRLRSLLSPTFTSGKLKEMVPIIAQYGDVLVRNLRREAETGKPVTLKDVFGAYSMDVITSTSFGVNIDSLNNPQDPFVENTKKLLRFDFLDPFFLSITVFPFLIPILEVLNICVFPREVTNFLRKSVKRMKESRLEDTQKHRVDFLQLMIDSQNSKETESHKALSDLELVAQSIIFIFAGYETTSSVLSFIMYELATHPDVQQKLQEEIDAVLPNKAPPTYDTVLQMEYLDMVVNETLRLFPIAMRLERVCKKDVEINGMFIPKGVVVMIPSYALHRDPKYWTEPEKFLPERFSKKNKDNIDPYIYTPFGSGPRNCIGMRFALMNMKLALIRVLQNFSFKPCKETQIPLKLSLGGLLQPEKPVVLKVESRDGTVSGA
- assay procedure: in vitro
- condition summary: microsomes
pIC50: −log10 of the molar value.
property: pIC50

response.value for "Cc1nc2ccc(C(=O)N3CCC4(CC3)CC(=O)c3c(cnn3C(C)C)C4)cc2[nH]1" (field: pIC50) = < 4.52

---

- tgt: CYP2C8 (Homo sapiens, UniProt P10632)
- Sequence (P10632 1-490): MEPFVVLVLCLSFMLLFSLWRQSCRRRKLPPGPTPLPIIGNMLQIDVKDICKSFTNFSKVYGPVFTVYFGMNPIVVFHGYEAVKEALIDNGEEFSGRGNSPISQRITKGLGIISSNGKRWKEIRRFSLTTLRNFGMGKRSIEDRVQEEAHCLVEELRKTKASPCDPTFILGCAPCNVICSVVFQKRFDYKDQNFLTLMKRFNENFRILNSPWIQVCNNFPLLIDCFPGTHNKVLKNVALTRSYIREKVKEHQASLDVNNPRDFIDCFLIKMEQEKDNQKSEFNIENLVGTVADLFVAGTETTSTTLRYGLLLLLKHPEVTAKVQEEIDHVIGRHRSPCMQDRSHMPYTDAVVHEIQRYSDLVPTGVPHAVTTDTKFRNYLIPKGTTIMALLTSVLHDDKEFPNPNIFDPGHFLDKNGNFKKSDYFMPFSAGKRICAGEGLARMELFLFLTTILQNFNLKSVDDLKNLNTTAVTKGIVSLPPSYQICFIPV
property: IC50

// recorded IC50 for Cc1nc2ccc(C(=O)N3CCC4(CC3)CC(=O)c3c(cnn3C(C)C)C4)cc2[nH]1 [Example 1] : > 30 µM

---

Readings of IC50 for the listed compounds
- Tested on: SZ95 human sebocyte cells
- assay procedure: Inhibition of de novo lipogenesis (14C-acetate incorporation) in cultured human sebocytes
- Format: cell-based
- condition summary: Homo sapiens, SZ95 sebocytes, 14C-acetate incorporation into lipids relative to vehicle; read-out: C9302E Sebocyte IC50
Answer with a number only, understood to be in nM.

| compound | IC50 [nM] |
| --- | --- |
| COc1ccc2ccc(C(=O)N3CCC4(CC3)CC(=O)c3c(cnn3C(C)C)C4)cc2c1 | 28.2 |
| CO[C@H]1CCCC[C@@H](c2ccccc2)OC(=O)[C@@H](C)[C@@]2(O)O[C@H]([C@@H](C)[C@H](O)[C@H]2OC)[C@@H](C)/C=C/[C@H]1OC [Example 9, reference compound] | 4 |

Shifting focus to the compound that follows.
Reported IC50 for "Cc1nc2ccc(C(=O)N3CCC4(CC3)CC(=O)c3c(cnn3C(C)C)C4)cc2[nH]1" was 679

---

- tgt: UniProt:P33261
- Sequence (P33261 whole entry): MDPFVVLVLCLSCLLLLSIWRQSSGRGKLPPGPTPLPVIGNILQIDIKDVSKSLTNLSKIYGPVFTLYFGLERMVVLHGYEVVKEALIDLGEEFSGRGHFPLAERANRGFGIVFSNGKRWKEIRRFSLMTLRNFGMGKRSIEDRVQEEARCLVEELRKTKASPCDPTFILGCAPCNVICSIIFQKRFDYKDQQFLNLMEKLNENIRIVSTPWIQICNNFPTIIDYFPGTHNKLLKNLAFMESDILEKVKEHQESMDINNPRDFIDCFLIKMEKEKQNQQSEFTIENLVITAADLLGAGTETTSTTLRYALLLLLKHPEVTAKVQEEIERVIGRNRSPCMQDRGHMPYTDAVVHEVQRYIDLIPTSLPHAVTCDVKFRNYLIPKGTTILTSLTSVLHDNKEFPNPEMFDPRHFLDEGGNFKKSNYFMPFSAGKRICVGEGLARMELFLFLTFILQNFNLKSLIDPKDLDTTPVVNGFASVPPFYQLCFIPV
property: IC50

# IC50 measured on UniProt:P33261 for item Cc1nc2ccc(C(=O)N3CCC4(CC3)CC(=O)c3c(cnn3C(C)C)C4)cc2[nH]1 [Example 1] = > 30 µM

---

- tgt: recombinant human ACC2 (rhACC2) (Homo sapiens, UniProt O00763, V2141I)
- Construct: made in house; host or cells: CHO cells, tetracycline-induced (pcDNA5 FRT TO-TOPO)
- Sequence (O00763 whole entry V2141I): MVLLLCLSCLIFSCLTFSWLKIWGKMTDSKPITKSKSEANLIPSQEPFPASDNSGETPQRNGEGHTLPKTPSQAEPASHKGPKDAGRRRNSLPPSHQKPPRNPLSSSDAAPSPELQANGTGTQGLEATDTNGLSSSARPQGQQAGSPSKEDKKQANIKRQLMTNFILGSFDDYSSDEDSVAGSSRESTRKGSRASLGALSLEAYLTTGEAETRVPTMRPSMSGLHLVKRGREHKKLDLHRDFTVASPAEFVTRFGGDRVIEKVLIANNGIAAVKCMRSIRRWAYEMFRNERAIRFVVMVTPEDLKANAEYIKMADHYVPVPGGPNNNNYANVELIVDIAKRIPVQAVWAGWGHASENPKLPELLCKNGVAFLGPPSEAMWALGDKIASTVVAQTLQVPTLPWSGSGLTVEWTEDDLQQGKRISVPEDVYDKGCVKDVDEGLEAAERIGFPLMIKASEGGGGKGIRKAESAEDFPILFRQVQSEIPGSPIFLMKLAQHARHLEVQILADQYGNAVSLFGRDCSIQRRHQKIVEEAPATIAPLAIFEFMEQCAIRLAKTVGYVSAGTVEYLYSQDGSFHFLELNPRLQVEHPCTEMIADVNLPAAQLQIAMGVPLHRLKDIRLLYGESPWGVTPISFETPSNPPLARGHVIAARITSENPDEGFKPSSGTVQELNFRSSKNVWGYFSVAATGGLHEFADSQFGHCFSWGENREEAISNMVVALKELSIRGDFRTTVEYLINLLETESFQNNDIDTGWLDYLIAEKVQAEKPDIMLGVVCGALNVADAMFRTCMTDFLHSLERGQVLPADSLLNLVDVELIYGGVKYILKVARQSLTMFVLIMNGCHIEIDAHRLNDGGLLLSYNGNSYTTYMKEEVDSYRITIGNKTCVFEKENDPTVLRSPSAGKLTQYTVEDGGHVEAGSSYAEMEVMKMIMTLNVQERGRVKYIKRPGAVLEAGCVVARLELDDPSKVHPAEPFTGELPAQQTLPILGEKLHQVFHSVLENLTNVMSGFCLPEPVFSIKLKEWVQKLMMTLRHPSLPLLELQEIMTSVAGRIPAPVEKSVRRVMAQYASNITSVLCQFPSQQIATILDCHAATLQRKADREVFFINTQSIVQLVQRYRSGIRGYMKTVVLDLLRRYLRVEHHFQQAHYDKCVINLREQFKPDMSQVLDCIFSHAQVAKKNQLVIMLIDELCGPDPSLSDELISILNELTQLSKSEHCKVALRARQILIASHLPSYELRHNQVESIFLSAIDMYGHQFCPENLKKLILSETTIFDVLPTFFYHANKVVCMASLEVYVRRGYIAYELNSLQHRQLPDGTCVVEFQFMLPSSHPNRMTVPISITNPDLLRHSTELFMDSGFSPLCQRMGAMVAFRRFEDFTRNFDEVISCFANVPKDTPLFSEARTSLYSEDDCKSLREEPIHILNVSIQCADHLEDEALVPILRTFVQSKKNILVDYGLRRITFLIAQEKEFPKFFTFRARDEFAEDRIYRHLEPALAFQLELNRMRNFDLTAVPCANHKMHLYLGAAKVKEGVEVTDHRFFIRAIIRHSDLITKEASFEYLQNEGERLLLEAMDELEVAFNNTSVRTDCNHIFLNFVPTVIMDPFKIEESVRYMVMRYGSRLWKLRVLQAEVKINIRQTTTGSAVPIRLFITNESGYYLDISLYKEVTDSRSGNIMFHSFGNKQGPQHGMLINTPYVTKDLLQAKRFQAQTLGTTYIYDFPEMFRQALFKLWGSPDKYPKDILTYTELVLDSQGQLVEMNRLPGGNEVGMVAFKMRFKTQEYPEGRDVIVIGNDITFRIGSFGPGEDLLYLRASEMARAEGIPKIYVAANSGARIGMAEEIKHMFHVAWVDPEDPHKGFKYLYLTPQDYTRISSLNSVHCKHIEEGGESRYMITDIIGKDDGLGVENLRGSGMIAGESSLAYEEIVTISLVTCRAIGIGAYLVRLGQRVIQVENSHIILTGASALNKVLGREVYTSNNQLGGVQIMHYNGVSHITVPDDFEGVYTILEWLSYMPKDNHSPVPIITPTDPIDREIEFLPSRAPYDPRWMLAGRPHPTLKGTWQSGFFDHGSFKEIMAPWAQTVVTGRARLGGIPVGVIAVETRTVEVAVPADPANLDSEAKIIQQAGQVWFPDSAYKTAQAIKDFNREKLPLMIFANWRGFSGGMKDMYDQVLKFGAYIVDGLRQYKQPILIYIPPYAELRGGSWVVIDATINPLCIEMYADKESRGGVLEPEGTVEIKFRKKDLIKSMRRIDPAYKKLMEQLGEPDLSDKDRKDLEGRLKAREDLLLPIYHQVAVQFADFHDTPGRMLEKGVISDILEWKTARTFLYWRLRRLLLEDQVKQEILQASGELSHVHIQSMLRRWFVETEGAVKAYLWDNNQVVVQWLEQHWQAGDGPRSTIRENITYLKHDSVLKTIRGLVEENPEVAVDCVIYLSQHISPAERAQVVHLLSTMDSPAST
- assay procedure: Transcreener ADP detection FP assay, recombinant human ACC2 inhibition
- Format: biochemical
- condition summary: recombinant human ACC2, 50 μM ATP; read-out: Transcreener Assay hACC2 IC50
pIC50: −log10 of the molar value.
property: pIC50

Reference set, count: 2
| compound | measured |
| --- | --- |
| CO[C@H]1CCCC[C@@H](c2ccccc2)OC(=O)[C@@H](C)[C@@]2(O)O[C@H]([C@@H](C)[C@H](O)[C@H]2OC)[C@@H](C)/C=C/[C@H]1OC [Example 9, reference compound] | 5.92 |
| Cc1nc2ccc(C(=O)N3CCC4(CC3)CC(=O)c3c(cnn3C(C)C)C4)cc2[nH]1 | 7.35 |

A. CCOc1cc(C(=O)N2CCC3(CC2)CC(=O)c2cc(-c4cncc(C(N)=O)c4)ccc2O3)cc(OCC)c1-c1cccc(C(=O)O)c1
B. CC(=O)NCC(C)c1ccc2nc(Oc3ccc(OCC4CC4)nc3)sc2c1 (stereo not shown)
Query :: Recorded pIC50 values differ for A and B ; which one is higher? Identify your pick by its label.
Result :: A

---

- tgt: recombinant human ACC1 (rhACC1) (Homo sapiens, UniProt Q13085, DEL44-44)
- Construct: His6 (N)
- assay procedure: Transcreener ADP detection FP assay, recombinant human ACC1 inhibition
- condition summary: recombinant human ACC1, 50 μM ATP; read-out: Transcreener Assay hACC1 IC50
pIC50: −log10 of the molar value.
property: pIC50

| compound smiles | pIC50 |
| --- | --- |
| CC(C)n1ncc2c1C(=O)CC1(CCN(C(=O)c3ccc4[nH]ncc4c3)CC1)C2 | 7.21 |

I. CC(C)(O)[C@@H](NC(=O)[C@H]1CC[C@H](NS(=O)(=O)c2ccc(C(F)(F)F)cc2)CC1)c1ccccc1
II. CC(=O)N[C@@H](C)C#Cc1ccc(Oc2ccc(OC(C)C)cc2)cc1
Query :: Of I and II , which carries the smaller reported pIC50 figure? Provide the label of your selected option as the answer.
Result :: II
